- Test system: HepG2
- assay-notes: cytotoxicity call (relative viability < 0.9)
- run-conditions: 10 µM
Among all 39,000 compounds or so, about 3,300 (8.5%) were called active. What follows is part of a selection rich in actives, with near analogues and random picks from the rest.
endpoint-name: cytotoxicity call

Before answering, review these 5 worked examples.
- compound: "O=C1N[C@H]2[C@@H]1[C@@H]1C=C[C@H]2C1"
  target-or-test-system: "HepG2"
  result: "inactive"
- compound: "CC(C)c1c(O)ccc2c1CCC1C(C)(C)CCCC21C (stereo not drawn)"
  target-or-test-system: "HepG2"
  result: "inactive"
- compound: "C[C@@H]1CCCCO[C@H](CN(C)S(C)(=O)=O)[C@H](C)CN([C@@H](C)CO)C(=O)c2cc(NC(=O)CCCN(C)C)ccc2O1"
  target-or-test-system: "HepG2"
  result: "inactive"
- compound: "O=C(O)CC(CC(=O)O)C(=O)O"
  target-or-test-system: "HepG2"
  result: "inactive"
- compound: "C=CCNC1=C2C[C@@H](C)C[C@H](OC)[C@H](O)[C@@H](C)/C=C(\\C)[C@H](OC(N)=O)[C@@H](OC)/C=C\\C=C(/C)C(=O)NC(=CC1=O)C2=O"
  target-or-test-system: "HepG2"
  result: "active"

For every item in the list below, what is its measured cytotoxicity call?
1. COC(=O)C1(C)CCCC2(C)c3ccc(C(C)C)cc3C(=O)CC12 (stereo not drawn)
2. COc1ccc(-c2cc(=O)c3c(O)cc(O)cc3o2)cc1
3. C=CCNC1=C2C[C@H](C)C[C@H](OC)[C@@H](O)[C@H](C)/C=C(\C)[C@H](OC(N)=O)[C@H](OC)/C=C/C=C(\C)C(=O)NC(=CC1=O)C2=O
4. CC(C)c1c(O)ccc2c1CCC1C(C)(C)C(=O)CCC21C (stereo not drawn)
5. O=c1[nH]c(=O)n([C@H]2C[C@H](O)[C@@H](CO)O2)cc1F

1. inactive
2. active
3. active
4. inactive
5. inactive

I'm hoping you can list cytotoxicity call for every compound here, please.
1. C[C@@H]1CN([C@H](C)CO)C(=O)c2cc(NS(=O)(=O)c3ccc(F)cc3)ccc2O[C@@H](C)CCCCO[C@H]1CN(C)C(=O)Nc1ccc(F)cc1
2. Cc1noc(C)c1NC(=O)Nc1cccc2c1O[C@@H](CN(C)Cc1ccc(Cl)c(Cl)c1)[C@@H](C)CN([C@H](C)CO)C2=O
3. Cc1cn([C@H]2C[C@H](O)[C@@H](CO)O2)c(=O)[nH]c1=O
4. COC(=O)C1(C)CCCC2(C)c3ccc(O)c(C(C)C)c3CCC12 (stereo not drawn)
5. COc1ccc(-c2cc(=O)c3c(OC)c(OC)c(OC)cc3o2)cc1OC

1. inactive
2. inactive
3. inactive
4. active
5. inactive

Below is a list of compounds. For each, state its recorded cytotoxicity call.
1. COc1ccc(-c2cc(=O)c3c(OC)c(OC)c(OC)c(OC)c3o2)cc1
2. Cn1cnc(S(=O)(=O)N2C[C@@H](O)COC[C@@H]3O[C@@H](CC(=O)NCc4cccc(F)c4)CC[C@H]32)c1
3. C[C@H]1CCCCO[C@H](CN(C)C(=O)CCC(F)(F)F)[C@@H](C)CN([C@@H](C)CO)C(=O)c2cc(NS(=O)(=O)c3ccc(F)cc3)ccc2O1
4. Cn1c(=O)c2c(ncn2CC(=O)N2CCN(c3ccccc3F)CC2)n(C)c1=O

["inactive", "inactive", "inactive", "inactive"]

For each of the items listed, what is its cytotoxicity call?
1. O=c1cc(-c2ccc(O)cc2)oc2cc(O)cc(O)c12
2. C[C@H]1CN([C@@H](C)CO)C(=O)Cc2cc(NS(=O)(=O)c3cccs3)ccc2O[C@H]1CN(C)S(=O)(=O)c1ccccc1
3. CO[C@H]1CN(C)C(=O)c2ccc(NS(=O)(=O)CC(F)(F)F)cc2OC[C@H](C)N(C(=O)NC(C)C)C[C@@H]1C

inactive
inactive
inactive

For every listed record, write down its cytotoxicity call.
1. Cc1ccc(S(=O)(=O)Nc2ccc3c(c2)C(=O)N([C@H](C)CO)C[C@@H](C)[C@H](CN(C)C(=O)Nc2ccccc2)OCCCC[C@@H](C)O3)cc1
2. C[C@@H]1CCCCO[C@H](CN(C)Cc2ccc(C(=O)Nc3ccccc3N)cc2)[C@@H](C)CN([C@H](C)CO)C(=O)c2cc(NS(=O)(=O)c3ccccc3)ccc2O1
3. CC(C)c1c(O)ccc2c1CCC1C(C)(C=O)CCCC21C (stereo not drawn)

1. inactive
2. inactive
3. inactive

// input: 3 compounds below; output: cytotoxicity call for each
1. COc1ccc(CNC(=O)C[C@@H]2C[C@H]3c4cc(NS(=O)(=O)c5ccc(F)cc5)ccc4O[C@H]3[C@@H](CO)O2)cc1
2. CCNC(=O)C[C@H]1C=C[C@@H](NC(=O)C2CC2)[C@@H](CO)O1
3. C[C@H]1CCCCO[C@@H](CN(C)C(=O)Nc2ccc(C(F)(F)F)cc2)[C@@H](C)CN([C@@H](C)CO)C(=O)c2cc(NC(=O)Cc3ccccc3)ccc2O1

1: inactive; 2: inactive; 3: inactive

Hey, can you go through the list below and give me cytotoxicity call for every item?
1. C[C@@H]1CCCCO[C@H](CN(C)Cc2ccc(C(=O)Nc3ccccc3N)cc2)[C@@H](C)CN([C@H](C)CO)C(=O)c2cc(NS(=O)(=O)c3cccs3)ccc2O1
2. C[C@@H]1CCCCO[C@H](CN(C)C(=O)Nc2ccc(F)cc2)[C@@H](C)CN([C@@H](C)CO)C(=O)c2cc(NS(=O)(=O)c3ccc(F)cc3)ccc2O1
3. COc1ccc(-c2cc(=O)c3c(O)cc(OC)cc3o2)cc1
4. Cc1ccc(S(=O)(=O)Nc2ccc3c(c2)C(=O)N([C@@H](C)CO)C[C@@H](C)[C@@H](CN(C)C(=O)Nc2ccccc2)OCCCC[C@@H](C)O3)cc1
5. Cc1c(C(N)=O)nnn1-c1ccc(F)cc1

["inactive", "active", "inactive", "inactive", "inactive"]

* * *

- Tested on: HepG2
- assay-notes: cytotoxicity call (relative viability < 0.9)
- run-conditions: 10 µM
The whole screen tested about 39,000 compounds, of which about 3,300 (8.5%) were called active. Only a selection was taken, and actives are over-represented in it overall.
Hi! Could you answer with just one of these? Yes for active, No for inactive

// known answers, use as guide
- molecule: "NC(=O)c1nnn(Cc2ccccc2)c1N"
  class-name: "No"
- molecule: "C[C@@H]1CN([C@@H](C)CO)C(=O)c2cccc(NC(=O)Nc3ccc(C(F)(F)F)cc3)c2O[C@H]1CN(C)S(=O)(=O)c1ccc(Cl)cc1"
  class-name: "No"

Query: recorded result category for CC(=O)OC1CC(OC(C)=O)C2(C)C(CC(O)C3(C)C2CCC2(C)C(c4ccoc4)OC(=O)C4OC423)C1(C)C (stereo not drawn) in this test
No

What call does the record list for `Cc1ccc(OCCn2c(CC(C)(C)C)nc3ccccc32)cc1` ?
No

Each molecule tested received a call. Report the one for `N#Cc1ccc(CN)cc1` .
No

Check the results log: what was the call for `COc1ccc(S(=O)(=O)N(C)C[C@@H]2OCCCC[C@H](C)Oc3ccc(NC(=O)Nc4c(C)noc4C)cc3C(=O)N([C@@H](C)CO)C[C@H]2C)cc1` ?
No

Please share the test call associated with `O=C(O)CN1CCCCCC1=O` .
No

* * *

- System: HepG2
- assay-notes: cytotoxicity call (relative viability < 0.9)
- run-conditions: 10 µM
In all, about 39,000 compounds went through this assay and about 3,300 (8.5%) were called active. Many of the other results were omitted from the sample, so actives are more common in it than they were.
Could you please pick one outcome from this set? active, inactive

- compound: "C[C@@H]1CN([C@@H](C)CO)C(=O)c2cc(NC(=O)Nc3cccc4ccccc34)ccc2O[C@H]1CN(C)Cc1ccncc1"
  class-name: "inactive"
- compound: "C[C@H]1CN([C@@H](C)CO)C(=O)c2cccc(NS(=O)(=O)c3ccc(F)cc3)c2O[C@@H]1CN(C)CC1CC1"
  class-name: "inactive"
- compound: "COCC#Cc1cnc2c(c1)C(=O)N([C@@H](C)CO)C[C@@H](C)[C@H](CN(C)C(=O)c1ccc3c(c1)OCO3)O2"
  class-name: "inactive"

Please indicate how the test categorized `COc1ccccc1S(=O)(=O)N[C@@H]1CC[C@@H](CCNC(=O)C2CC2)O[C@H]1CO` .
inactive

Tell me the recorded outcome of this test for `COc1ccc(S(=O)(=O)N2C[C@@H](O)COC[C@@H]3O[C@@H](CC(=O)NCc4ccc(Cl)c(Cl)c4)CC[C@H]32)cc1` .
active

So what was the verdict on `C[C@@H]1CCCCO[C@H](CN(C)Cc2ccc(C(=O)O)cc2)[C@H](C)CN([C@@H](C)CO)C(=O)c2cc(NC(=O)Nc3cccc4ccccc34)ccc2O1` in this test?
inactive

Could you kindly confirm the outcome this assay logged for `C[C@H](CO)N1C[C@H](C)[C@H](CN(C)C(=O)Nc2ccc(C(F)(F)F)cc2)Oc2c(NC(=O)Nc3cccc4ccccc34)cccc2C1=O` ?
inactive

Hey, what did the test say about `CC(C)NC(=O)N(C)C[C@H]1Oc2ccc(NC(=O)C3CCCCC3)cc2CC(=O)N([C@@H](C)CO)C[C@H]1C` ?
inactive
